Value source: patent US20220088180A1

- system-name: HLA-B*07:02 (human)
- test-summary: radioligand competition, purified MHC
property-measured: IC50 (µM)
Give bare numbers, in µM.

binder="KAFQLTPIAV (modifications not checked) [… (SEQ ID NO: 13)]" measurement=8.6

Challenge: Please report the recorded IC50 for FASEAARVV (modifications not checked) [… (SEQ ID NO: 17)] .
Response given: 8.55
